# tested_system: T1, Anti-CD28 scFv (VH - linker 1 - VL) (biotinylated (site not stated))
# T1 construct: Biotinylated and captured on neutravidin-coated plates in the phage panning ELISA
# T1 sequence (scFv, as listed by the source): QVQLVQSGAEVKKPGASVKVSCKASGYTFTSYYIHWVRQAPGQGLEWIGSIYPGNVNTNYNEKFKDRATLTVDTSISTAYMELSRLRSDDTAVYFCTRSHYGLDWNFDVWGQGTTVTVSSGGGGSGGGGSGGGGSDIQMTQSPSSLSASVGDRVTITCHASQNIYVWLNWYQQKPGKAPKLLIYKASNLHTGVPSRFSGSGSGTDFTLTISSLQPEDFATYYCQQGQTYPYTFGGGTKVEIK
# procedure_details: phage ELISA; biotinylated anti-CD28 scFv on neutravidin plate, clonal phage supernatant, anti-M13-HRP detection;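 also: before phage addition, wells were pretreated with soluble CD28 protein in blocking buffer, or with blocking buffer only as the comparison, then phage were added without washing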
readout: CD28 scFv signal
No unit in the answer, please; the number alone is enough.

# count of solved cases: 2
Tell me the measured CD28 scFv signal of IYWCPTAMWNRCSA (tested as crude clonal phage supernatant) [Phage-417 clonal phage peptide IYWCPTAMWNRCSA] , please. 0.817

Consider the binder MDWCPMSRWAFCFD (tested as crude clonal phage supernatant) [Phage-438 clonal phage peptide MDWCPMSRWAFCFD] and give its measured CD28 scFv signal. 1

Next:
Fill in the blank: the reported CD28 scFv signal of MNWCPSTMWNRCLT (tested as crude clonal phage supernatant) [Phage-428 clonal phage peptide MNWCPSTMWNRCLT] is ____. 0.065

Record request: CD28 scFv signal value, item MDWCPSNMWNECFF (tested as crude clonal phage supernatant) [Phage-416 clonal phage peptide MDWCPSNMWNECFF] 0.983

Bench note: what CD28 scFv signal did VDWCPAHMWNECYN (tested as crude clonal phage supernatant) [Phage-419 clonal phage peptide VDWCPAHMWNECYN] show? 0.664

Dear colleague, I am looking for the recorded CD28 scFv signal of the following binder: MDWCPRDRWVDCYA (tested as crude clonal phage supernatant) [Phage-435 clonal phage peptide MDWCPRDRWVDCYA] 1.48
